Values compiled from ChEMBL document CHEMBL4219148.

Molecular target: Testis-specific serine/threonine-protein kinase 2 (Homo sapiens)
Sequence (Q96PF2 whole entry): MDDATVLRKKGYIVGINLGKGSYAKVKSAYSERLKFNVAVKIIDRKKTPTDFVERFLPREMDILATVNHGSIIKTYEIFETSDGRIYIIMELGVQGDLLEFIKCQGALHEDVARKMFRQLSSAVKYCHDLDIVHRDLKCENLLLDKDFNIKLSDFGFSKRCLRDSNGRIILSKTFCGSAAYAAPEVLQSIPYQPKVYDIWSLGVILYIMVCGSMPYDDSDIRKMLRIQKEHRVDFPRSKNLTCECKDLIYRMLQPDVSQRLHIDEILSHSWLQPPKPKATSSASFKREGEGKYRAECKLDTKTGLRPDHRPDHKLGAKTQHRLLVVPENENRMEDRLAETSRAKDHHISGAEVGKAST
Metric name: IC50

Case Cc1cn2c(-c3cn[nH]c3)cnc2c(Nc2cc(Cc3ccccn3)ns2)n1 , Testis-specific serine/threonine-protein kinase 2 (Homo sapiens), IC50 recorded as > 500 nM
